System: HeLa MZ
Measurement Notes: filipin (cholesterol) integrated intensity within LBPA endosomes, Z-score; higher = more cholesterol in LBPA endosomes
Test Parameters: compound concentration in added solution (µM; 5 µl added to 20 µl cells): 10; 18 h
Where a name gives a salt, the structure may show the parent alone.
Using filipin (z-score) as the sorting value, the categories are 1 (below -0.5), 2 (-0.5 to below 0.1), 3 (0.1 or more)

Solved cases below.
[[record]]
compound = "CC(=O)c1ccc(S(=O)(=O)NC(=O)NC2CCCCC2)cc1 [Acetohexamide]"
qualitative_label = 1

[[record]]
compound = "CCN(CC)C(=O)c1ccc(O)c(OC)c1 [Ethamivan]"
qualitative_label = 2

[[record]]
compound = "CN1CCN(C2=Nc3ccccc3Oc3ccc(Cl)cc32)CC1 [Loxapine succinate]"
qualitative_label = 2


Req: Dear colleague, I would appreciate it if you could identify the bin for CC(C)(C)NC(=O)[C@H]1CC[C@H]2[C@@H]3CC[C@H]4NC(=O)C=C[C@]4(C)[C@H]3CC[C@]12C [Finasteride] and reply at your convenience.
Resp: 2

Req: State the band of Fc1ccc([C@@H]2CCNC[C@H]2COc2ccc3c(c2)OCO3)cc1 [Paroxetine Hydrochloride]
Resp: 3

###

Test system: HeLa MZ
Measurement Notes: LBPA endosome anti-LBPA integrated intensity (sum per cell), Z-score; higher = more LBPA staining
Test Parameters: compound concentration in added solution (µM; 5 µl added to 20 µl cells): 10; 18 h
Where a name gives a salt, the structure may show the parent alone.
Recorded Metric: LBPA endosome anti-LBPA integrated intensity (z-score)
// return just the number, without any unit appended

Check out these entries, answers already filled in.
[[record]]
compound = "CCN(CC)C(=O)N1CCN(C)CC1 [Diethylcarbamazine citrate]"
result_number = -0.824

[[record]]
compound = "CCCCCCCCNC(C)C(O)c1ccc(SC(C)C)cc1 (centres undefined)"
result_number = -0.389

[[record]]
compound = "CC1(C)OC(=O)NC1=O"
result_number = 0.802


Req: Consider the compound NNCCc1ccccc1 [Phenelzine sulfate] and give its measured LBPA endosome anti-LBPA integrated intensity (z-score).
Resp: -0.966

Req: What measured LBPA endosome anti-LBPA integrated intensity (z-score) goes with CN1CCN(CCCN2c3ccccc3Sc3ccc(S(=O)(=O)N(C)C)cc32)CC1 [Thioproperazine dimesylate] ?
Resp: 1.97

Req: Requested read-out: LBPA endosome anti-LBPA integrated intensity (z-score). Entry: C#CCN(C)CCCOc1ccc(Cl)cc1Cl [Clorgyline hydrochloride]
Resp: 0.155

Req: Item CCCCOc1cc(C(=O)OCCN(CC)CC)ccc1N [Benoxinate hydrochloride] has what recorded LBPA endosome anti-LBPA integrated intensity (z-score)?
Resp: 1.63

Req: Given Cc1cc(C(=O)NNCc2ccccc2)no1 , state its recorded LBPA endosome anti-LBPA integrated intensity (z-score).
Resp: -1.31

Req: Looking for the measured LBPA endosome anti-LBPA integrated intensity (z-score) of CCCCCCC[N+](CC)(CC)CCCCc1ccc(Cl)cc1 [Clofilium tosylate] , can you help?
Resp: -0.791

###

Tested on: HeLa MZ
Measurement Notes: LBPA endosome anti-LBPA integrated intensity (sum per cell), Z-score; higher = more LBPA staining
Test Parameters: compound concentration in added solution (µM; 5 µl added to 20 µl cells): 10; 18 h
Counter-ions that a name gives are not always drawn.
Recorded Metric: LBPA endosome anti-LBPA integrated intensity (z-score)
When you answer, write just the number.

// worked examples, LBPA endosome anti-LBPA integrated intensity (z-score) included
[[record]]
molecule = "N=C(N)NCCN1CCCCCCC1 [Guanethidine sulfate]"
result_number = -1.05

[[record]]
molecule = "C[C@]12CC[C@H]3C(=CCc4cc(O)ccc43)[C@@H]1CCC2=O"
result_number = 0.864

[[record]]
molecule = "CCN(CC)CCN[C@@H](C(=O)OCCC(C)C)c1ccccc1 [Camylofine chlorhydrate]"
result_number = 0.886

[[record]]
molecule = "Nc1nc(=O)c2c([nH]1)NC[C@@H](CNc1ccc(C(=O)N[C@@H](CCC(=O)O)C(=O)O)cc1)N2C=O [Folinic acid calcium salt]"
result_number = -0.265

[[record]]
molecule = "CC(C)Cc1ccc([C@H](C)C(=O)O)cc1 [S-(+)-ibuprofen]"
result_number = -0.256


Req: Would you kindly share the measured LBPA endosome anti-LBPA integrated intensity (z-score) for CCCCNC(=O)NS(=O)(=O)c1ccc(C)cc1 [Tolbutamide] ?
Resp: 0.292

Req: Fill in the blank: the reported LBPA endosome anti-LBPA integrated intensity (z-score) of O=C(OCC(O)CO)c1ccccc1Nc1ccnc2cc(Cl)ccc12 (stereo not drawn) [Glafenine hydrochloride] is ____.
Resp: 1.9

Req: LBPA endosome anti-LBPA integrated intensity (z-score) lookup needed for Cc1nccn1CC1CCc2c(c3ccccc3n2C)C1=O (stereo not drawn) [Ondansetron Hydrochloride] , thanks.
Resp: 1.23

Req: Could you share which LBPA endosome anti-LBPA integrated intensity (z-score) value was measured for CC(C)NC[C@H](O)COc1cccc2ccccc12 [(S)-propranolol hydrochloride] ?
Resp: 1.72

Req: I would be grateful if you could share the reported LBPA endosome anti-LBPA integrated intensity (z-score) for CNc1ncnc2c1ncn2[C@@H]1O[C@H](CO)[C@@H](O)[C@H]1O .
Resp: 0.218

Req: Param item = CN(CCOc1ccc(CC2SC(=O)NC2=O)cc1)c1ccccn1 (stereo not drawn) [Rosiglitazone Hydrochloride] ; retrieve measured LBPA endosome anti-LBPA integrated intensity (z-score).
Resp: 0.286
